Source: ChEMBL document CHEMBL5532644

Tested on: HT-1080
Test: Anti-ferroptotic activity in human HT-1080 cells assessed as cell viability incubated for 24 hrs by Cell-titer-glo assay
Type: functional, cell-based
Conditions: ht-1080
pEC50: −log10 of the molar value.
Readout: pEC50

>>> test_result("Oc1c(-c2ccc(Cl)cc2)n[nH]c1-c1ccccc1")
7.72
>>> test_result("Oc1c(-c2ccc(F)cc2)n[nH]c1-c1ccccc1")
7.37
>>> test_result("COc1ccc(-c2n[nH]c(-c3ccccc3)c2O)cc1")
7.49

---

pEC50 values, listed per item
Tested on: HT-1080
Experiment: Anti-ferroptotic activity in human HT-1080 cells assessed as cell viability incubated for 24 hrs by Cell-titer-glo assay
Type: functional, cell-based
Details: Homo sapiens, HT-1080, 24 h
pEC50: −log10 of the molar value.
Readout: pEC50

>>> test_result("Oc1c(-c2ccc(Cl)cc2)nn(-c2ccccc2)c1-c1ccccc1")
7.61
>>> test_result("Oc1c(-c2ccc(-c3ccccc3)cc2)n[nH]c1-c1ccccc1")
7.40
>>> test_result("Oc1c(-c2ccc(Cl)cc2)n[nH]c1-c1cccc2ccccc12")
7.35
>>> test_result("Oc1c(-c2ccc(C(F)(F)F)cc2)n[nH]c1-c1ccccc1")
7.10
>>> test_result("COc1ccc(-c2[nH]nc(-c3ccc(Cl)cc3)c2O)cc1OC")
7.50
>>> test_result("Oc1c(-c2ccc3c(c2)OCO3)n[nH]c1-c1ccccc1")
7.56
>>> test_result("COc1ccc(-c2[nH]nc(-c3ccc(Cl)cc3)c2O)cc1")
7.64
>>> test_result("Oc1c(-c2ccccc2Cl)n[nH]c1-c1ccccc1")
7.02
>>> test_result("Cc1ccc(-c2[nH]nc(-c3ccc([N+](=O)[O-])cc3)c2O)cc1")
6.92
>>> test_result("Oc1c(-c2ccc(Cl)cc2)n[nH]c1-c1ccc(F)cc1")
7.28
>>> test_result("CCNC(=O)c1ccc(-c2[nH]nc(-c3ccc(Cl)cc3)c2O)cc1")
7.09
>>> test_result("Oc1c(-c2ccc(F)cc2)n[nH]c1-c1ccccc1")
7.10
>>> test_result("COC(=O)c1ccc(-c2[nH]nc(-c3ccc(Cl)cc3)c2O)cc1")
7.29
>>> test_result("Cn1nc(-c2ccc(Cl)cc2)c(O)c1-c1ccccc1")
7.66
>>> test_result("CCCCc1[nH]nc(-c2ccccc2)c1O")
6.82
>>> test_result("Oc1c(-c2ccccc2)n[nH]c1-c1ccccc1")
7.16
>>> test_result("O=C(NO)c1ccc(-c2[nH]nc(-c3ccc(Cl)cc3)c2O)cc1")
7.10
>>> test_result("Cn1nc(-c2ccc(Cl)cc2)c(N)c1-c1ccccc1")
6.14
>>> test_result("Oc1c(-c2ccccc2)n[nH]c1-c1ccc(Br)cc1")
7.65
